Entries and their measured log10 EC50 follow.
# EXPERIMENTAL_SYSTEM: Glucocorticoid receptor (Homo sapiens, UniProt P04150)
# Sequence (P04150 whole entry): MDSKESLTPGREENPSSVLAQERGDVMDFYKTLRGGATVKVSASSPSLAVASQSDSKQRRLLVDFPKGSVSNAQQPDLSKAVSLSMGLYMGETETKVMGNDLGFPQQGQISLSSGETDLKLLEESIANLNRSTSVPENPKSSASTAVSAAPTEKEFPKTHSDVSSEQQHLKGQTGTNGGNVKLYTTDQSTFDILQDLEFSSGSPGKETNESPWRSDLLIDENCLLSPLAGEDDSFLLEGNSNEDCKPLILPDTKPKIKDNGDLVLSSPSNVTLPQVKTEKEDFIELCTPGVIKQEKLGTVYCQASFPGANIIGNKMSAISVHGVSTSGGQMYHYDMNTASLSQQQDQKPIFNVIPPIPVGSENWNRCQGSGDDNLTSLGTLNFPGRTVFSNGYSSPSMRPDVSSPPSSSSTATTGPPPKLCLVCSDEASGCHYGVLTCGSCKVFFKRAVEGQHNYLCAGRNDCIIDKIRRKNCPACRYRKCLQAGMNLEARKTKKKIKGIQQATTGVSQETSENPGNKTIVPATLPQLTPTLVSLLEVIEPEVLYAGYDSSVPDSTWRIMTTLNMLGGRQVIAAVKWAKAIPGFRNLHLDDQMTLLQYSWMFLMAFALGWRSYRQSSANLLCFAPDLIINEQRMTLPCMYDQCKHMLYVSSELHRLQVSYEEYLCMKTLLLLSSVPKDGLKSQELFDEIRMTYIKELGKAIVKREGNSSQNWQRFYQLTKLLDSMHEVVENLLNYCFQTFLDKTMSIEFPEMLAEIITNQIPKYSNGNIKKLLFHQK
// units: nM (pre-log); metric: EC50; scale: log10

The following molecules have reported results that may help.
>>> measured("Nc1c(C(=O)NCC(O)(CN(CCO)C(=O)c2c(F)cccc2F)C(F)(F)F)cnn1-c1ccc(F)cc1 (stereo not drawn)")
1.70
>>> measured("CCN(CC(O)(CNC(=O)c1cnn(-c2ccc(F)cc2)c1N)C(F)(F)F)C(=O)c1cccc(Cl)c1 (racemic)")
2.40

## Task Item CCN(CC(O)(CNC(=O)c1cnn(-c2ccc(F)cc2)c1N)C(F)(F)F)C(=O)c1cccc(F)c1Cl (racemic) has what recorded log10 EC50?
## Result 1.70

## Task Item CCN(CC(O)(CNC(=O)c1cnn(-c2ccc(F)cc2)c1N)C(F)(F)F)C(=O)c1ccccc1 (stereo in doubt; 13c) has what recorded log10 EC50?
## Result 1.40

## Task Item CCN(CC(O)(CNC(=O)c1cnn(-c2ccc(F)cc2)c1N)C(F)(F)F)C(=O)c1ccccc1F (stereo not drawn) has what recorded log10 EC50?
## Result 1.30

## Task Item CCN(CC(O)(CNC(=O)c1cnn(-c2ccc(F)cc2)c1N)C(F)(F)F)C(=O)c1ccc2[nH]ccc2c1 (stereo not drawn) has what recorded log10 EC50?
## Result 0.50

## Task Item CCN(CC(O)(CNC(=O)c1cnn(-c2ccc(F)cc2)c1N)C(F)(F)F)C(=O)c1c(Cl)cc(Cl)cc1Cl (racemic) has what recorded log10 EC50?
## Result 1.70

====

Target protein (sequence): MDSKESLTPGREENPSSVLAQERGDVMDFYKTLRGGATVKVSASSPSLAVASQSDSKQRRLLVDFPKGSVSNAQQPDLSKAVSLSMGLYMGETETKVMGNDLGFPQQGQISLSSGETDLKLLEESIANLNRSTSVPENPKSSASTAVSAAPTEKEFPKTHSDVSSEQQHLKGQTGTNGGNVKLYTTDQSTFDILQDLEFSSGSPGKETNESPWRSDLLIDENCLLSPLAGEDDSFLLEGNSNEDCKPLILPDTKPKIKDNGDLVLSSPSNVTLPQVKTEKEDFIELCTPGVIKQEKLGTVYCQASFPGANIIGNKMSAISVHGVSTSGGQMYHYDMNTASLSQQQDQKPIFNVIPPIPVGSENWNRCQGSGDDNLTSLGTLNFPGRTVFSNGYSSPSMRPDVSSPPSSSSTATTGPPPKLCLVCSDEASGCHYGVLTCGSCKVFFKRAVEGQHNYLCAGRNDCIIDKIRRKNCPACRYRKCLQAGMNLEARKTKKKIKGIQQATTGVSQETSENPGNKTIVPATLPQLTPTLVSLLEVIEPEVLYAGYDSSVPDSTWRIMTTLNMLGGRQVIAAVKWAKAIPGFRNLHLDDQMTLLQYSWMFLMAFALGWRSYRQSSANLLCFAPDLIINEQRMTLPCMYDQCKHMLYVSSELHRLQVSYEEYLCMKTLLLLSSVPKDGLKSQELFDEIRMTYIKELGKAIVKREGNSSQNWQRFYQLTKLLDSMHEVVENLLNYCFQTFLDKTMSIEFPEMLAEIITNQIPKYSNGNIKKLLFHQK
RESULT_TYPE: EC50

## Task Item CN(CC(O)(CNC(=O)c1cnn(-c2ccc(F)cc2)c1N)C(F)(F)F)C(=O)c1c(F)cccc1F (racemic) has what recorded EC50?
## Result 251 nM
